target: DN-III quality control recombinant protein (produced by Fapon Biotech InC.) (dengue virus); test: BLI, AMC sensor, antibody captured
Examples of binders with documented koff follow.
Supply the numeric figure in s⁻¹, leaving out any unit text.

[[record]]
binder = "Mutation 1-10 (antibody, V domains shown) VH: EVQLQQSGTELVRPGALVKLSCKASGFNIKDYYIHWVKQRPRQGLEWIGWIDPENGKTIYDPKFQDKASITSDTSTNTAYLQLRSLTSEDTAVYYCVSAYFRFVYWGQGTLVTVSA VL: QIVLTQSPAIMSAFPGERVTMTCSASTSVRYMYWHQQKPGSSPRLLIYDTSNLASGVPVRFSGSGSGTSYSLTISRDEAMDAATYYCQQWSSYPRTFGGGTKLEIKR"
value_units = "s⁻¹"
measured_number = "4.21e-05"


Query Mutation 1-11 (antibody, V domains shown) VH: EVQLQQSGTELVRPGALVKLSCKASGFNIKDYYLHWVKQRPRQGLEWIGWIDPENGKTLYDPKFQDKASITSDTSTNTAYLQLRSLTSEDTAVYYCVSAYYRFVYWGQGTLVTVSA VL: QIVLTQSPAIMSAFPGERVTMTCSASSSVRYMYWHQQKPGSSPRLLIYDTSNVASGVPVRFSGSGSGTSYSLTISRDEAMDAATYYCQQWSSFPRTFGGGTKLEIKR yields koff of 2.83e-05
